As shown below, each of these compounds has a reported MIC value.
- Test system: C. glabrata ATCC 90030
- Assay name: microbe, parasite or virus in culture
- Assay type: cell-based
- Condition description: ATCC 90030, pH 7
Please give a number only; it is taken to be in µg/mL.

[
  {
    "Compound": "CC[C@H](C)C[C@H](C)CCCCCCCCC(=O)N[C@H]1C[C@@H](O)[C@@H](NCCN)NC(=O)[C@@H]2[C@@H](O)CCN2C(=O)[C@H]([C@H](O)CCNC(=O)CCC(=O)NCCOCCOCCNC(=O)[C@H](Cc2ccccc2)NC(=O)[C@H](CC(C)C)NC(=O)[C@H](CCSC)NC=O)NC(=O)[C@H]([C@H](O)[C@@H](O)c2ccc(O)cc2)NC(=O)[C@@H]2C[C@@H](O)CN2C(=O)[C@H]([C@@H](C)O)NC1=O [Compound 16]",
    "MIC (µg/mL)": 32
  },
  {
    "Compound": "CC[C@H](C)C[C@H](C)CCCCCCCCC(=O)N[C@H]1C[C@@H](O)[C@@H](OCCNC(=O)CCNC(=O)[C@H](Cc2ccccc2)NC(=O)[C@H](CC(C)C)NC(=O)[C@H](CCSC)NC=O)NC(=O)[C@@H]2[C@@H](O)CCN2C(=O)[C@H]([C@H](O)CCN)NC(=O)[C@H]([C@H](O)[C@@H](O)c2ccc(O)cc2)NC(=O)[C@@H]2C[C@@H](O)CN2C(=O)[C@H]([C@@H](C)O)NC1=O [Compound 9]",
    "MIC (µg/mL)": 8
  },
  {
    "Compound": "CC[C@H](C)C[C@H](C)CCCCCCCCC(=O)N[C@H]1C[C@@H](O)[C@@H](NCCN)NC(=O)[C@@H]2[C@@H](O)CCN2C(=O)[C@H]([C@H](O)CCNC(=O)[C@H](CCSC)NC(=O)[C@H](CC(C)C)NC(=O)[C@H](CCSC)NC=O)NC(=O)[C@H]([C@H](O)[C@@H](O)c2ccc(O)cc2)NC(=O)[C@@H]2C[C@@H](O)CN2C(=O)[C@H]([C@@H](C)O)NC1=O [Compound 28]",
    "MIC (µg/mL)": 2
  }
]

// map CC[C@H](C)C[C@H](C)CCCCCCCCC(=O)N[C@H]1C[C@@H](O)[C@@H](NCCN)NC(=O)[C@@H]2[C@@H](O)CCN2C(=O)[C@H]([C@H](O)CCNC(=O)[C@H](CC(C)C)NC(=O)[C@H](CCSC)NC=O)NC(=O)[C@H]([C@H](O)[C@@H](O)c2ccc(O)cc2)NC(=O)[C@@H]2C[C@@H](O)CN2C(=O)[C@H]([C@@H](C)O)NC1=O [Compound 27] to recorded MIC (system: C. glabrata ATCC 90030) 2

And the next one, CC[C@H](C)C[C@H](C)CCCCCCCCC(=O)N[C@H]1C[C@@H](O)[C@@H](NCCN)NC(=O)[C@@H]2[C@@H](O)CCN2C(=O)[C@H]([C@H](O)CCNC(=O)[C@H](CCCCN)NC=O)NC(=O)[C@H]([C@H](O)[C@@H](O)c2ccc(O)cc2)NC(=O)[C@@H]2C[C@@H](O)CN2C(=O)[C@H]([C@@H](C)O)NC1=O [Compound 25] ? 0.5
